test system: Escherichia coli TOP10; experiment: shrunken log2 fold change of peptide-encoding DNA abundance (4.5 h post-induction vs induction); higher = less antimicrobial activity (less host growth inhibition); conditions: time post-induction: 4.5 h; library: site-saturation at positions 5, 18, 19, 20
Quick reference: shrunken log2 fold change of the listed items.
observed property: shrunken log2 fold change

sequence string | observed property | endpoint value
RRIRYRPPRLPRPRPRPMHYPRP | shrunken log2 fold change | -1.03
RRIRGRPPRLPRPRPRPRKAPRP | shrunken log2 fold change | 0.693
RRIRNRPPRLPRPRPRPDLVPRP | shrunken log2 fold change | -0.15
RRIRDRPPRLPRPRPRPGAVPRP | shrunken log2 fold change | 0.614
RRIRPRPPRLPRPRPRPECQPRP | shrunken log2 fold change | 0.126
RRIRKRPPRLPRPRPRPIVHPRP | shrunken log2 fold change | -0.42
RRIRWRPPRLPRPRPRPIIQPRP | shrunken log2 fold change | -0.151
RRIRNRPPRLPRPRPRPMKNPRP | shrunken log2 fold change | -0.238
RRIRIRPPRLPRPRPRPIMTPRP | shrunken log2 fold change | -0.26
RRIRIRPPRLPRPRPRPDEMPRP | shrunken log2 fold change | -0.15
RRIRHRPPRLPRPRPRPHLHPRP | shrunken log2 fold change | -0.513
RRIRMRPPRLPRPRPRPFSQPRP | shrunken log2 fold change | -0.0398
RRIRVRPPRLPRPRPRPWLEPRP | shrunken log2 fold change | 0.147
RRIRQRPPRLPRPRPRPHGPPRP | shrunken log2 fold change | -0.102
RRIRLRPPRLPRPRPRPWTAPRP | shrunken log2 fold change | 0.0908
RRIRVRPPRLPRPRPRPDGHPRP | shrunken log2 fold change | -0.00145
RRIRGRPPRLPRPRPRPSYQPRP | shrunken log2 fold change | -0.0215
RRIRPRPPRLPRPRPRPCISPRP | shrunken log2 fold change | -0.0753
RRIRSRPPRLPRPRPRPHTWPRP | shrunken log2 fold change | -0.0472
RRIRWRPPRLPRPRPRPMSHPRP | shrunken log2 fold change | -0.132
RRIRFRPPRLPRPRPRPDKRPRP | shrunken log2 fold change | -0.0786
RRIRLRPPRLPRPRPRPNYGPRP | shrunken log2 fold change | -0.0135
RRIRPRPPRLPRPRPRPTPFPRP | shrunken log2 fold change | 0.269
RRIRARPPRLPRPRPRPMGLPRP | shrunken log2 fold change | 0.00193
RRIRGRPPRLPRPRPRPKPKPRP | shrunken log2 fold change | 0.601
RRIRYRPPRLPRPRPRPNLMPRP | shrunken log2 fold change | -0.617
RRIRHRPPRLPRPRPRPLWFPRP | shrunken log2 fold change | -0.00823
RRIRVRPPRLPRPRPRPVAWPRP | shrunken log2 fold change | 0.421
RRIRYRPPRLPRPRPRPHVFPRP | shrunken log2 fold change | -0.0822
RRIRKRPPRLPRPRPRPTNWPRP | shrunken log2 fold change | 0.689
RRIRHRPPRLPRPRPRPTDVPRP | shrunken log2 fold change | -0.217
RRIRDRPPRLPRPRPRPNSTPRP | shrunken log2 fold change | -0.295

---

system: Escherichia coli TOP10; assay: shrunken log2 fold change of peptide-encoding DNA abundance (4.5 h post-induction vs induction); higher = less antimicrobial activity (less host growth inhibition); conditions: time post-induction: 4.5 h; library: site-saturation at positions 5, 18, 19, 20

sequence string | shrunken log2 fold change
RRIRWRPPRLPRPRPRPHQTPRP | 0.0649
RRIRTRPPRLPRPRPRPYVVPRP | -0.738
RRIRHRPPRLPRPRPRPRVHPRP | 0.0785
RRIRTRPPRLPRPRPRPTECPRP | -0.0493
RRIRARPPRLPRPRPRPDWSPRP | 0.048
RRIRQRPPRLPRPRPRPMNLPRP | -0.169
RRIRRRPPRLPRPRPRPLLLPRP | 0.0522
RRIRRRPPRLPRPRPRPNYCPRP | -0.25

---

system: Escherichia coli TOP10; assay: shrunken log2 fold change of peptide-encoding DNA abundance (4.5 h post-induction vs induction); higher = less antimicrobial activity (less host growth inhibition); conditions: time post-induction: 4.5 h; library: site-saturation at positions 5, 18, 19, 20;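 note: peptides expressed intracellularly from a pBAD plasmid library in pooled LB shake-flask culture, induced with 0.3% L-arabinose, DNA abundance read by NGS, three biological replicates, DESeq2 with apeglm shrinkage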
observed property: shrunken log2 fold change

sequence string | observed property | endpoint value
RRIRTRPPRLPRPRPRPDEQPRP | shrunken log2 fold change | 0.0127
RRIRERPPRLPRPRPRPDQDPRP | shrunken log2 fold change | -0.00875
RRIRSRPPRLPRPRPRPTMCPRP | shrunken log2 fold change | -0.0421
RRIRVRPPRLPRPRPRPGLMPRP | shrunken log2 fold change | 0.0219
RRIRSRPPRLPRPRPRPFIYPRP | shrunken log2 fold change | -0.82
RRIRGRPPRLPRPRPRPFYPPRP | shrunken log2 fold change | -0.62
RRIRHRPPRLPRPRPRPEQNPRP | shrunken log2 fold change | 0.0816
RRIRMRPPRLPRPRPRPAFLPRP | shrunken log2 fold change | 0.175
RRIRARPPRLPRPRPRPSWNPRP | shrunken log2 fold change | -0.19
RRIRLRPPRLPRPRPRPMVPPRP | shrunken log2 fold change | 0.096
RRIRLRPPRLPRPRPRPWGMPRP | shrunken log2 fold change | -0.0457
RRIRCRPPRLPRPRPRPYSDPRP | shrunken log2 fold change | -0.0426
RRIRKRPPRLPRPRPRPTYSPRP | shrunken log2 fold change | -0.191
RRIRYRPPRLPRPRPRPIQNPRP | shrunken log2 fold change | -0.219
RRIRNRPPRLPRPRPRPYRGPRP | shrunken log2 fold change | -0.0134
RRIRWRPPRLPRPRPRPEWAPRP | shrunken log2 fold change | 0.497
RRIRARPPRLPRPRPRPYIWPRP | shrunken log2 fold change | -0.543
RRIRDRPPRLPRPRPRPNREPRP | shrunken log2 fold change | -0.00168
RRIRWRPPRLPRPRPRPIYIPRP | shrunken log2 fold change | -0.889
RRIRFRPPRLPRPRPRPQNEPRP | shrunken log2 fold change | -0.603
RRIRTRPPRLPRPRPRPIAHPRP | shrunken log2 fold change | 0.00363
RRIRHRPPRLPRPRPRPTKWPRP | shrunken log2 fold change | 0.0132
RRIRCRPPRLPRPRPRPSSVPRP | shrunken log2 fold change | -0.548
RRIRQRPPRLPRPRPRPMHKPRP | shrunken log2 fold change | 0.0742
RRIRQRPPRLPRPRPRPGPYPRP | shrunken log2 fold change | -0.0528
RRIRCRPPRLPRPRPRPALGPRP | shrunken log2 fold change | 0.38
RRIRPRPPRLPRPRPRPSHRPRP | shrunken log2 fold change | 0.0628
RRIRLRPPRLPRPRPRPPPVPRP | shrunken log2 fold change | 0.98
RRIRIRPPRLPRPRPRPTQIPRP | shrunken log2 fold change | 0.245
RRIRTRPPRLPRPRPRPDFWPRP | shrunken log2 fold change | 0.413
RRIRLRPPRLPRPRPRPIIHPRP | shrunken log2 fold change | -0.186
RRIRWRPPRLPRPRPRPKCDPRP | shrunken log2 fold change | 0.033
RRIRTRPPRLPRPRPRPVAHPRP | shrunken log2 fold change | -0.0854
RRIRIRPPRLPRPRPRPTMGPRP | shrunken log2 fold change | 0.0793
RRIRSRPPRLPRPRPRPNGKPRP | shrunken log2 fold change | -0.437
RRIRLRPPRLPRPRPRPACNPRP | shrunken log2 fold change | -0.191
RRIRIRPPRLPRPRPRPNFTPRP | shrunken log2 fold change | -0.545
RRIRNRPPRLPRPRPRPQAVPRP | shrunken log2 fold change | -0.0343
RRIRPRPPRLPRPRPRPPKGPRP | shrunken log2 fold change | 0.308
RRIRQRPPRLPRPRPRPNYIPRP | shrunken log2 fold change | -0.445
RRIRWRPPRLPRPRPRPRICPRP | shrunken log2 fold change | -0.0691
RRIRFRPPRLPRPRPRPAPMPRP | shrunken log2 fold change | 0.282
RRIRHRPPRLPRPRPRPLVQPRP | shrunken log2 fold change | -0.0987
RRIRKRPPRLPRPRPRPAEFPRP | shrunken log2 fold change | 0.0773
RRIRLRPPRLPRPRPRPYQPPRP | shrunken log2 fold change | -0.582
RRIRSRPPRLPRPRPRPLGNPRP | shrunken log2 fold change | -0.43
RRIRNRPPRLPRPRPRPTPQPRP | shrunken log2 fold change | 0.232
RRIRSRPPRLPRPRPRPDSWPRP | shrunken log2 fold change | 0.0247
RRIRLRPPRLPRPRPRPMFQPRP | shrunken log2 fold change | -1.11
RRIRNRPPRLPRPRPRPCFWPRP | shrunken log2 fold change | -0.0333
RRIRNRPPRLPRPRPRPMHHPRP | shrunken log2 fold change | -0.653
RRIRQRPPRLPRPRPRPVDRPRP | shrunken log2 fold change | -0.0864
RRIRNRPPRLPRPRPRPFMPPRP | shrunken log2 fold change | -0.209
RRIRVRPPRLPRPRPRPYCWPRP | shrunken log2 fold change | -0.0314
RRIRCRPPRLPRPRPRPKWWPRP | shrunken log2 fold change | 0.0539
RRIRWRPPRLPRPRPRPWCPPRP | shrunken log2 fold change | 0.0505
RRIRMRPPRLPRPRPRPNIFPRP | shrunken log2 fold change | -0.0848
RRIRFRPPRLPRPRPRPMWAPRP | shrunken log2 fold change | 0.0936
RRIRWRPPRLPRPRPRPAQGPRP | shrunken log2 fold change | 0.27
RRIRDRPPRLPRPRPRPMSRPRP | shrunken log2 fold change | -0.107
RRIRLRPPRLPRPRPRPHEDPRP | shrunken log2 fold change | -0.682
RRIRVRPPRLPRPRPRPWVEPRP | shrunken log2 fold change | -0.0944
RRIRTRPPRLPRPRPRPQWWPRP | shrunken log2 fold change | 0.199
